The reported numbers originate from patent US20190064177A1.

# System: diaphorase
# test-method-notes: fluorescently labeled diaphorase binding to peptide array with or without excess FAD
# experimental-context: ratio without/with FAD calculated from measured binding values, 1 micromolar diaphorase
measured-quantity: Meas. ratio

primary-sequence	Meas. ratio
NRKFYWNAGGSG [array peptide with C-terminal GSG linker]	2.10
RWSFPAKGGSG [array peptide with C-terminal GSG linker]	2.77
YRPYGPVYNGGSG [array peptide with C-terminal GSG linker]	2.77
FYNFGYQDLEDGS	0.75
RWYKNGGSG [array peptide with C-terminal GSG linker]	2.78

[I] RFKYPLDGGSG [array peptide with C-terminal GSG linker]
[II] VLAYKLQVDGSG [array peptide with C-terminal GSG linker]
[III] RPLQVQRGGSG [array peptide with C-terminal GSG linker]
[ask] Order each entry by recorded Meas. ratio, climbing from the minimum. Write the labels, ordered according to the request.
[reply] III, II, I
(III: 0.37, II: 0.68, I: 2.62)

----------
# System: diaphorase
# test-method-notes: fluorescently labeled diaphorase binding to peptide array with or without excess FAD
# experimental-context: 1 micromolar labeled diaphorase, no FAD; 65535 is detector saturation
measured-quantity: 1 micro no FAD (array fluorescence of bound diaphorase)

Here are 3 sequences together with their reported answers.
primary-sequence	recorded-value
RQAYLFGGSG [array peptide with C-terminal GSG linker]	14479.75
WRGFKFADGGSG [array peptide with C-terminal GSG linker]	5654.5
YNRNAKSSGGSG [array peptide with C-terminal GSG linker]	4014

[A] PRYQNFGGGSG [array peptide with C-terminal GSG linker]
[B] YSVDYWYQVDGSG [array peptide with C-terminal GSG linker]
[C] RWRYYWKSEGSG [array peptide with C-terminal GSG linker]
[D] YSALFGLQEDGSG [array peptide with C-terminal GSG linker]
[E] LDRLGEYQFSGSG [array peptide with C-terminal GSG linker]
[ask] Order each entry by recorded 1 micro no FAD (array fluorescence of bound diaphorase), climbing from the minimum. Write the labels, ordered according to the request.
[reply] E, D, B, A, C
(E: 709.25, D: 1225.5, B: 1802.5, A: 6907, C: 11043)

[I] PRYSGQYGGSG [array peptide with C-terminal GSG linker]
[II] NVSDLSQFYLSGSG [array peptide with C-terminal GSG linker]
[ask] Which of the two items, I and II , has the greater recorded 1 micro no FAD (array fluorescence of bound diaphorase)? Answer with the label corresponding to your selection.
[reply] I

[P] EAVQKLLFSGSG [array peptide with C-terminal GSG linker]
[Q] LLGFLGGSG [array peptide with C-terminal GSG linker]
[R] RWKYQKFNGGSG [array peptide with C-terminal GSG linker]
[ask] Order each entry by recorded 1 micro no FAD (array fluorescence of bound diaphorase), climbing from the minimum. Write the labels, ordered according to the request.
[reply] P, Q, R

[a] FQFGKVVSDGSG [array peptide with C-terminal GSG linker]
[b] RYPWNKLYKFDGSG [array peptide with C-terminal GSG linker]
[c] KNRPYNKDLEDGSG [array peptide with C-terminal GSG linker]
[ask] Order each entry by recorded 1 micro no FAD (array fluorescence of bound diaphorase), climbing from the minimum. Write the labels, ordered according to the request.
[reply] c, a, b

[1] QLLQLLFGGSG [array peptide with C-terminal GSG linker]
[2] DLDKAFGGSG [array peptide with C-terminal GSG linker]
[3] RQYQKHSYAKFSGSG [array peptide with C-terminal GSG linker]
[ask] Order each entry by recorded 1 micro no FAD (array fluorescence of bound diaphorase), climbing from the minimum. Write the labels, ordered according to the request.
[reply] 2, 1, 3
